- experimentalProtocol: Mouse biodistribution study
- Assay type: in vivo, Slc:ICR mice
- conditionNotes: mice, time point of 60 minutes
readoutKind: ratio of radioactivity accumulations in the myocardium and liver (heart/liver ratio)
The answer should be a number; do not append a unit.

[18F]CCOc1cccc([P+](Cc2ccccc2)(c2ccccc2)c2ccccc2)c1.[Br-] [[^18F]TAP-018]: 9.40
COc1ccc(C[P+](c2ccccc2)(c2ccccc2)c2cccc(OCC[18F])c2)cc1 [[^18F]TAP-019]: 4.56
[18F]CCOc1ccc([P+](Cc2ccccc2)(c2ccccc2)c2ccccc2)cc1 [[^18F]TAP-001]: 2.70

The compound listed as [18F]CCOc1cccc([P+](CCCc2ccccc2)(c2ccccc2)c2ccccc2)c1.[Br-] [[^18F]TAP-022] shows ratio of radioactivity accumulations in the myocardium and liver (heart/liver ratio) equal to 4.98
